Experiment Notes: Toxicity liver stage against HepG2, at 10uM
Assay type: cell-based
Set-up: test concentration 10 uM, cell line HepG2-A16-CD81EGFP
Protocol Conditions: human, HepG2-A16-CD81EGFP cells; read-out: INHIBITION
Readout Type: cytotoxicity at 10 µM (%)
Enter your answer as a number in %; do not include the unit.

Notebook: Cc1ccn(-c2ccccc2NCc2ccccn2)n1 , cytotoxicity at 10 µM read as -9.99

Notebook: CNC(=O)[C@@H]1C[C@H](N)CN1S(=O)(=O)c1cc(Cl)c(Cl)s1 , cytotoxicity at 10 µM read as 1.27

Notebook: Cc1ccc(-n2nnc(CC(=O)N3CCSCC3)c2C)cc1 , cytotoxicity at 10 µM read as -13.1

Notebook: CCC(C(=O)NCc1csc(-c2ncccn2)n1)n1cccn1 (configuration not stated) , cytotoxicity at 10 µM read as -5.79

Notebook: Cc1nnc(CNC(=O)CC2CCc3ccccc32)o1 (configuration not stated) , cytotoxicity at 10 µM read as 1.58

Notebook: O=C(NCC1CCCO1)c1nc2c(s1)CCCN2Cc1ccccc1 (configuration not stated) , cytotoxicity at 10 µM read as 1.84

Notebook: CN1CCCN(S(=O)(=O)c2cccc(C(=O)N3CCCCCC3)c2)CC1 , cytotoxicity at 10 µM read as -5.9

Notebook: O=C(c1cc2ccccc2c(=O)[nH]1)N1CCN(CCO)CC1 , cytotoxicity at 10 µM read as 4.96

Notebook: COc1cccc(OC2CN(C(=O)c3sccc3C)C2)c1 , cytotoxicity at 10 µM read as 2.3

Notebook: c1cc(COC[C@@]23CCC[C@@H]2CN(C2CCOCC2)C3)ccn1 , cytotoxicity at 10 µM read as 8.44

Notebook: CN(C)c1cc(CNc2ccc(S(=O)(=O)C(C)(C)C)nc2)ccn1 , cytotoxicity at 10 µM read as -7.33

Notebook: c1ccc(CN2CCc3c(CNc4nccs4)n[nH]c3C2)nc1 , cytotoxicity at 10 µM read as -7.04

====

Experiment Notes: Toxicity liver stage against HepG2, at 10uM
Format: cell-based
Set-up: test concentration 10 uM, cell line HepG2-A16-CD81EGFP
Protocol Conditions: human, HepG2-A16-CD81EGFP cells; read-out: INHIBITION
Can you tell me cytotoxicity at 10 µM for the items I'm about to list?
Enter your answer as a number in %; do not include the unit.

Notebook: O=C1NCC2(CCC(C(=O)N3CCC(O)CC3)CC2)Oc2ccccc21 (configuration not stated) , cytotoxicity at 10 µM read as -21.7

Notebook: Cc1cc(CSCc2ccccn2)on1 , cytotoxicity at 10 µM read as 7.69

Notebook: CC(C)c1nnc(CN2C(=O)OC[C@@H]2C(C)C)o1 , cytotoxicity at 10 µM read as 14.3

Notebook: CC(C)c1nn(C)cc1CNCc1cccnc1N(C)C , cytotoxicity at 10 µM read as -1.96

Notebook: Cc1nc(C2CCCN2C(=O)CC2CCCC2)ncc1C(N)=O (configuration not stated) , cytotoxicity at 10 µM read as -21.7

Notebook: O=S1(=O)NC(c2ccnc(N3CCOCC3)n2)=Nc2ccccc21 , cytotoxicity at 10 µM read as 10.8

Notebook: N#Cc1cccnc1N1CCC2(CCCN(C3CCOCC3)C2=O)C1 (configuration not stated) , cytotoxicity at 10 µM read as -9.21

Notebook: COCCc1noc(-c2ccc(-c3ccc(N)nc3)nc2)n1 , cytotoxicity at 10 µM read as 2.5

Notebook: O=C([C@H]1CCCO1)N1CCCC2(CCN(Cc3ccncc3)C2=O)C1 (some centres not stated) , cytotoxicity at 10 µM read as 11.9

Notebook: O=C(Cc1cccs1)N1CCOCC1c1ccccc1 (configuration not stated) , cytotoxicity at 10 µM read as -6.73

Notebook: Cc1cnn(Cc2ccc(NC(=O)N3CCCC3)cc2)c1 , cytotoxicity at 10 µM read as 1.18

Notebook: CC(C)(O)CCc1ccc(C(=O)N2Cc3cnn(CCO)c3C2)cc1 , cytotoxicity at 10 µM read as 2.69

Notebook: CN(C)CCNC(=O)c1ccc(OC2CCN(CC3CC3)CC2)c(Cl)c1 , cytotoxicity at 10 µM read as -6.26

Notebook: CCc1nnc(C(C)N2CCCN(C(=O)Oc3ccccc3)CC2)o1 (configuration not stated) , cytotoxicity at 10 µM read as 2.79

Notebook: Cc1nc(C)c(CC(=O)N2CCCN(CC3CC3)C(C(C)C)C2)c(=O)[nH]1 (configuration not stated) , cytotoxicity at 10 µM read as -153

Notebook: Cc1noc(C)c1CN1CCO[C@H]2CN(Cc3cccc(F)c3)C[C@H]21 , cytotoxicity at 10 µM read as -99.8

Notebook: Cc1nn(C)c(N(C)C)c1CNCc1cccnc1N1CCOCC1 , cytotoxicity at 10 µM read as -141

Notebook: Cc1noc(-c2ccc(N3CCCC(C(=O)O)C3)nc2)n1 (configuration not stated) , cytotoxicity at 10 µM read as -2.38

Notebook: CS(=O)(=O)CCCNC1(c2ccc(Br)cc2)CCC1 , cytotoxicity at 10 µM read as -0.0862

Notebook: Cc1ccc(S(N)(=O)=O)cc1C(=O)NC1CCCC1 , cytotoxicity at 10 µM read as 1.86

Notebook: CC(=O)N1CCC(N2CCOC[C@H]2c2nc(-c3cccnc3)c[nH]2)CC1 , cytotoxicity at 10 µM read as 1.35

Notebook: CC(C)=CCN1CCN(CCCOc2ccccc2)[C@H]2CS(=O)(=O)C[C@H]21 , cytotoxicity at 10 µM read as -8.34

Notebook: Cn1ccnc1CN(Cc1cccnc1)CC1CCCO1 (configuration not stated) , cytotoxicity at 10 µM read as 15.2

Notebook: COc1ccc(CC(=O)N2CCCC2c2nc(C)c(C)c(O)n2)cc1 (configuration not stated) , cytotoxicity at 10 µM read as -17.7

Notebook: CC(C)=CCC1(CO)CCCN(S(=O)(=O)N2CCCC2)C1 (configuration not stated) , cytotoxicity at 10 µM read as -3.38

Notebook: CCC(C(=O)N1CCN(C(=O)N2CCOCC2)CC1)n1cccn1 (configuration not stated) , cytotoxicity at 10 µM read as 2.35

Notebook: C[C@@H]1CN(C(=O)C2CCS(=O)(=O)CC2)C[C@]1(C)O , cytotoxicity at 10 µM read as -4.11

Notebook: CC(=O)N1CCc2nc(C3CCN(C(=O)c4ccccc4)C3)ncc2C1 (configuration not stated) , cytotoxicity at 10 µM read as -4.76

Notebook: O=C1CCCN1Cc1nnc2n1CCN(Cc1ccoc1)CC2 , cytotoxicity at 10 µM read as 2.72

Notebook: Cn1cc(C2(C)CN(Cc3ccc(Cl)c(F)c3)CCO2)cn1 (configuration not stated) , cytotoxicity at 10 µM read as 4.98

Notebook: Cc1cc(-c2ccccc2Cl)nc(N)n1 , cytotoxicity at 10 µM read as -0.268

Notebook: CS(=O)(=O)N1CCOCC2(CCN(c3ccccn3)C2)C1 (configuration not stated) , cytotoxicity at 10 µM read as 14.3

Notebook: COCCN(C)C(=O)Nc1ccn(-c2cccc(C(F)(F)F)c2)n1 , cytotoxicity at 10 µM read as -2.16

Notebook: CCn1ccnc1CN1CCN(C(C)C(=O)NC2CCCCC2)CC1 (configuration not stated) , cytotoxicity at 10 µM read as -2.17

Notebook: Cc1cc(N2CCc3c(nc(C(C)C)n3C)C2)nc(N)n1 , cytotoxicity at 10 µM read as -6.79

Notebook: Cc1csc(N2CCN(CCCN3CCCC3=O)CC2)n1 , cytotoxicity at 10 µM read as 3.92

Notebook: Cc1oncc1C(=O)N1CC[C@H]2[C@@H]1CCC(=O)N2CC1CCOCC1 , cytotoxicity at 10 µM read as 4.33

Notebook: O=C(NCc1cccc(N2CC=CC2)c1)NCC(F)(F)F , cytotoxicity at 10 µM read as 8.89

Notebook: C/N=C1\c2cc3cc(OC)ccc3n2CCN1Cc1ccccc1 , cytotoxicity at 10 µM read as 80.4

Notebook: CC(C)(C)n1cc(C(=O)N2CCN(Cc3ccsc3)CC2)cn1 , cytotoxicity at 10 µM read as -5.79

Notebook: Cc1nc(CNC2CCCN(c3cccnn3)C2)no1 (configuration not stated) , cytotoxicity at 10 µM read as -5.55

Notebook: Cc1noc(C)c1CN1C[C@@H]2COC[C@@H](CC(=O)N3CCCO3)[C@@H]2C1 , cytotoxicity at 10 µM read as -68.3

Notebook: CCC(CNC(=O)c1cncc(Br)c1)N1CCc2ccccc2C1 (configuration not stated) , cytotoxicity at 10 µM read as 13.4

Notebook: CN(C)S(=O)(=O)Nc1ccc(-n2nncc2C(F)(F)F)cc1 , cytotoxicity at 10 µM read as -2.64

Notebook: CC(C)c1nnc2n1CCN(C(=O)CN1Cc3ccccc3C1=O)C2 , cytotoxicity at 10 µM read as -1.81

Notebook: O=S(=O)(c1ccccc1)N1CCC2(CCCN2Cc2ccc(Cl)cc2)C1 (configuration not stated) , cytotoxicity at 10 µM read as -66.3

Notebook: CCc1nccn1CCCn1ccnc1-c1[nH]cnc1C , cytotoxicity at 10 µM read as 10
